test: Single dose plasma pharmacokinetics after IV and PO administration; assay type: in vivo, female BALB/c mice; conditions: mouse; PO 20 mg/kg, plasma, female BALB/c mice
MEASUREMENT_TYPE: half-life (h)
Number only, in h; omit the unit.

-- ask Report half-life for Cc1ncc(S(=O)(=O)Nc2ccc(C)c3c(C#N)c[nH]c23)s1 [Compound 1]
-- reply 2.52

----------
Each item that follows carries a reported AUC(0-t).
assay: Single dose plasma pharmacokinetics after IV and PO administration; type: in vivo, female BALB/c mice; details: female, BALB/c, mouse, plasma, po, 20 mg/kg, PO 20 mg/kg, plasma, female BALB/c mice; read-out: AUC(0-t)
Number only, in µg·h/mL; omit the unit.

MOLECULE: Cc1ccc(NS(=O)(=O)c2cccc(C#N)c2)c2[nH]cc(C#N)c12 [Compound E7820, E7820, reference compound]
MEASUREMENT_TYPE: AUC(0-t)
VALUE_OBSERVED: 66.2

// next item, AUC(0-t) requested
-- ask Report AUC(0-t) for `Cc1ncc(S(=O)(=O)Nc2ccc(C)c3c(C#N)c[nH]c23)s1`
-- reply 151

----------
experiment: Liver microsomes stability, mouse; type: in vitro ADME; details: Table 6, read-out: Metabolic Stability Half-life, Mouse
MEASUREMENT_TYPE: half-life at 1 µM (min)
Number only, in min; omit the unit.

Solved cases below.
COMPOUND: Cc1ccc(NS(=O)(=O)c2cccc(C#N)c2)c2[nH]cc(C#N)c12 [Compound E7820, E7820, reference compound]
half-life at 1 µM (min): 29

COMPOUND: Cc1ncc(S(=O)(=O)Nc2ccc(C)c3c(C#N)c[nH]c23)s1
half-life at 1 µM (min): 47

// next item, half-life at 1 µM requested
-- ask Report half-life at 1 µM for `[2H]C([2H])([2H])c1ncc(S(=O)(=O)Nc2ccc(C)c3c(C#N)c[nH]c23)s1`
-- reply 67

----------
Each item that follows carries a reported AUC(0-t).
test: Single dose plasma pharmacokinetics after IV and PO administration; assay type: in vivo, female BALB/c mice; settings: female, BALB/c, mouse, plasma, po, 20 mg/kg, AUC(0-8 hr), oral administration, female BALB/c mice; Table 7
Number only, in ng·h/mL; omit the unit.

SMILES_NOTATION: [2H]C([2H])([2H])c1ncc(S(=O)(=O)Nc2ccc(C)c3c(C#N)c[nH]c23)s1
UNIT_OF_MEASURE: ng·h/mL
AUC(0-t): 107000

-- ask Report AUC(0-t) for `Cc1ncc(S(=O)(=O)Nc2ccc(C)c3c(C#N)c[nH]c23)s1`
-- reply 62300

----------
assay: Single dose plasma pharmacokinetics after IV and PO administration; format: in vivo, female BALB/c mice; conditions: mouse; PO 20 mg/kg, plasma, female BALB/c mice
MEASUREMENT_TYPE: Tmax (h)
Number only, in h; omit the unit.

COMPOUND: Cc1ccc(NS(=O)(=O)c2cccc(C#N)c2)c2[nH]cc(C#N)c12 [Compound E7820, E7820, reference compound]
VALUE_OBSERVED: 2.67

// next item, Tmax requested
-- ask Report Tmax for `Cc1ncc(S(=O)(=O)Nc2ccc(C)c3c(C#N)c[nH]c23)s1`
-- reply 2.33

----------
experiment: General solubility protocol (PBS, pH 7.4); type: physicochemical; settings: PBS buffer, aqueous buffer, kinetic from dmso stock, pH 7.4, 25° C.
MEASUREMENT_TYPE: log10(solubility at 2 h) (log10 of the value in µM)
The figures below represent log10 of solubility at 2 h, where solubility at 2 h is stated in µM.

Solved cases below.
COMPOUND: Cc1cc(S(=O)(=O)Nc2ccc(C)c3c(C#N)c[nH]c23)sn1 [Compound 57]
VALUE_OBSERVED: 2.47

COMPOUND: Cc1ncc(S(=O)(=O)Nc2ccc(C)c3c(C#N)c[nH]c23)o1 [Compound 2]
VALUE_OBSERVED: 2.47

COMPOUND: Cc1ncc(S(=O)(=O)Nc2ccc(C)c3c(C#N)c[nH]c23)s1 [Compound 1]
VALUE_OBSERVED: 1.71

COMPOUND: Cc1ncc(S(=O)(=O)Nc2ccc(C)c3c(Cl)c[nH]c23)s1 [Compound 20]
VALUE_OBSERVED: 0.28

COMPOUND: Cc1ccc(NS(=O)(=O)c2ccn3ccnc3c2)c2[nH]cc(C#N)c12 [Compound 39]
VALUE_OBSERVED: 0.09

// next item, log10(solubility at 2 h) requested
-- ask Report log10(solubility at 2 h) for Cc1ccc(NS(=O)(=O)c2cccc(C#N)c2)c2[nH]cc(C#N)c12 [Compound E7820, E7820, reference compound]
-- reply 1.91
